tested on: SR; assay: NCI tumour cell line growth inhibition, 48 h
Active and inactive are the calls of the source. Cut-off read from the data, not from the text of the source: active = GI50 up to about 1.1 µM and inactive = higher.
property-measured: GI50

Item: C=C(Cl)C(Cl)(CBr)CCCC(C)C (stereo not given) | GI50: > 75.7 µM (inactive)

// recorded GI50 for C=C/C(C)=C\CC1[C@](C)(O)CC[C@H]2C(C)(C)C(=O)CC[C@]12C (stereo not given in full) : 24.6 µM (inactive)

The recorded GI50 for COc1ccc(/C=C\c2cc(OC)c(O[Si](C)(C)C(C)(C)C)c(OC)c2)cc1 is 19.7 µM (inactive)

Note to self: GI50 recorded for N#C/C(=C\NC(=S)Nc1ccc(S(=O)(=O)Nc2ccccn2)cc1)C(N)=O was > 100 µM (inactive)

Lab note: measured GI50 of O=C(O)c1nc2cc(C(F)(F)F)ccc2[nH]c1=O was > 100 µM (inactive)

The recorded GI50 for COc1ccc(N2C(=O)C3c4[nH]c5ccc(OCc6ccccc6)cc5c4C4CCC(c5ccccc5)CC4C3C2=O)cc1 (stereo not given) is 2.37 µM (inactive)

So, COC(=O)CCc1ccc2c(c1)CC1(C2)Cc2ccc3c(c2C1)CCC3 (stereo not given) ? Its GI50 was > 100 µM (inactive)

Form: compound = COc1ccc(/N=N/c2c(O)ccc3ccccc23)cc1 ; GI50 = 14.8 µM (inactive)

Looking up Cc1cccc(C(=O)O)c1C(=O)c1cccc2ccccc12 , I found its GI50 recorded as > 100 µM (inactive)

# GI50 of COc1ccc2c3c([nH]c2c1[N+](=O)[O-])C(C)=NCC3 = 40.4 µM (inactive)
